// data source = PubChem BioAssay (NCI)

# Test system: EKVX NSCLC
# assay_summary: NCI-60 one-dose screen, 48 h
# protocol_conditions: 10 µM unless noted
Compounds without any hit were thinned out: in the full panel of roughly 83,000, 20% have a hit. Activity calls are given as the source filed them. How the source made its calls: active means growth percent below 10; inactive means the rest.
Outcomes: Yes (active), No (inactive)

compound	tested_on	assigned_category
Cc1nc2nc(C(F)(F)F)[nH]c2nc1C	EKVX NSCLC	No
O=C1C(N2CCOCC2)=Cc2cccc3cccc1c23	EKVX NSCLC	No
COc1cc2cc(Oc3ccc(NC(=O)Nc4cccc(C(F)(F)F)c4)cc3)c(C)nc2cc1OCCN1CCCCC1	EKVX NSCLC	No
O=C(O)c1ccccc1Oc1cc(-c2ccco2)nc(OCCBr)n1	EKVX NSCLC	No
O=C1c2c(c3c4cc(Br)ccc4[nH]c3c3ccc4ccccc4c23)C(=O)N1O	EKVX NSCLC	No
COc1cccc(C2CC(=O)Nc3cc4c(cc32)CCC4)c1OC (stereo not given)	EKVX NSCLC	No
O=S(=O)(/N=C1C=C/C(=N\S(=O)(=O)c2ccccc2)c2ccccc2\1)c1ccccc1	EKVX NSCLC	No
COC(=O)/C=C1/CCC2C3CCC4=CC(=O)C(Br)CC4(C)C3C(=O)CC12C (stereo not given)	EKVX NSCLC	No
CCCCCCCC/C=C\CCCCCCCCOc1cccc(CC(=O)NCC[N+](C)(C)C)c1	EKVX NSCLC	No
COc1ccc(-c2c(-c3cc4c(c(OC)c3OC)OCO4)noc2N)cc1	EKVX NSCLC	No
CN1CCN(CCCn2c3c(sc4ncccc43)c(=O)n3nnc(-c4ccccc4)c23)CC1	EKVX NSCLC	No
c1ccc2cc(Cn3c(-c4ccc5ccccc5c4)[n+](Cc4ccc5ccccc5c4)c4ccccc43)ccc2c1	EKVX NSCLC	Yes
Cc1cc(C)c(S(=O)O)c(C)c1	EKVX NSCLC	No
COc1ccc(-c2[nH]ncc2Nc2cc(OC)c(OC)c(OC)c2)cc1	EKVX NSCLC	No
Cc1ccc2nc(NC(=O)CSC(=S)N3CCN(Cc4ccccc4)CC3)sc2c1	EKVX NSCLC	No
COc1cc(C2C3=C(COC3=O)N(CCO)c3cc4c(cc32)OCO4)cc(OC)c1O (stereo not given)	EKVX NSCLC	No
CC(=O)c1cc(C)c(OC(=O)c2ccccc2)c(C)c1	EKVX NSCLC	No
COC(=O)[C@@]12CC[C@@H](C)[C@]3(C[C@@H](c4ccoc4)OC3=O)[C@H]1CC[C@@H]1O[C@@]12C	EKVX NSCLC	No
O=C1C=CC(=O)N1CCCCCCCCCCN1C(=O)C=CC1=O	EKVX NSCLC	No
COc1cc(OCc2cccc(-c3ccc(C(O)c4nccs4)cc3)c2C)cc(OC)c1C=O (stereo not given)	EKVX NSCLC	No
COCCOC1=C(Cl)C(=O)c2ccccc2C1=O	EKVX NSCLC	No
COc1cc(C(=O)N(C(C)C)C2CCCCC2)cc(OC)c1OC	EKVX NSCLC	No
CCCCCCCCCCCCCCn1c2ccccc2c2c3c(c4c5cc(OC)ccc5oc4c21)C(=O)NC3=O	EKVX NSCLC	No
O=C(NCc1cccnc1)c1ccc([N+](=O)[O-])o1	EKVX NSCLC	No
CC1CCCCN1S(=O)(=O)c1ccc(CN=C=S)cc1 (stereo not given)	EKVX NSCLC	No
Cc1c(C(=O)Nc2nc(-c3ccccc3)cs2)nnn1-c1cccc2ccccc12	EKVX NSCLC	No
CCCCCCCC/C=C\CCCCCCCCOc1cccc(CC(=O)NCC[N+]2(C)CCCC2)c1	EKVX NSCLC	No
COc1cccc(C2C3=C(COC3=O)N(CCO)c3cc4c(cc32)OCO4)c1 (stereo not given)	EKVX NSCLC	No
O=C1CCC(N2C(=O)c3cccc(NCCOCCOCCNC(=O)c4cc5c(o4)C(=O)c4ccccc4C5=O)c3C2=O)C(=O)N1 (stereo not given)	EKVX NSCLC	No
O=C1/C(=C/c2ccccc2F)CNC/C1=C\c1ccccc1F	EKVX NSCLC	No
NS(=O)(=O)c1ccc(C(=O)N/N=C(\CS(=O)(=O)c2ccccc2)c2cc3cc(Br)ccc3o2)cc1	EKVX NSCLC	No
CON=C1C[C@]2(C[C@@H]3C[C@@H](C/C=C(\C)C[C@@H](C)/C=C/C=C4\CO[C@@H]5[C@H](O)C(C)=C[C@@H](C(=O)O3)[C@]45O)O2)O[C@H](/C(C)=C/C(C)C)[C@H]1C	EKVX NSCLC	No
COc1cccc(C2C3=C(COC3=O)N(CCO)c3cc4c(cc32)CCC4)c1 (stereo not given)	EKVX NSCLC	No
CN(C)c1ccc(/C=C(\C#N)c2cc3ccccc3n2C)cc1	EKVX NSCLC	No
Cc1nc(-c2ccccc2)cc2c(O)c(C(=O)N/N=C/Cc3ccccc3)[nH]c(=O)c12	EKVX NSCLC	No
CC(=O)OC[C@]1(C)C=C2C(=O)[C@](C)(O)C3(CC3)C(C)=C2[C@H]1OC(C)=O	EKVX NSCLC	No
COc1ccccc1CNCCCCCCCCCCCCN1C(=O)c2ccc3c4c(ccc(c24)C1=O)C(=O)N(CCCCCCCCCCCCNCc1ccccc1OC)C3=O	EKVX NSCLC	No
Nc1cc2[nH]c(=O)c3ccccc3c2cc1Br	EKVX NSCLC	No
CCCCc1ccc(NC(=O)C(F)(F)F)cc1	EKVX NSCLC	No
COc1cc(Cn2cc(F)c(=O)[nH]c2=O)cc(OC)c1	EKVX NSCLC	No

###

# Test system: SK-OV-3 ovarian
# assay_summary: NCI-60 one-dose screen, 48 h (100 = growth as untreated, 0 = no growth, -100 = all killed)
# protocol_conditions: 10 µM
This is part of a sample that, as a whole, favours compounds with a hit. Of some 83,000 tested, about 20% had one in any assay.
Entries annotated with measured growth
observed_property: growth (%)

>>> df
                                    molecule  observed_property  display_unit  value_measured
 0            COCCOC1=C(Cl)C(=O)c2ccccc2C1=O             growth             %            87.5
 1  COc1cc(-c2ccc3cc(OC)c(OC)c(OC)c3c2)cc(OC)c1OC             growth             %            76.7
 2  COc1ccc(-n2c(SCc3cc(OC)c(OC)c(OC)c3)nc3ccc(C)cc3c2=O)c(OC)c1             growth             %            45.3
 3  Cc1ccc2nc(NC(=O)CSC(=S)N3CCN(C)CC3)sc2c1             growth             %             108
 4    NS(=O)(=O)c1cc(Br)c2c(c1)S(=O)(=O)NCN2             growth             %             115
 5  O=[N+]([O-])c1ccc(C=C2C(Cl)=C(Cl)C(Cl)=C2Cl)cc1             growth             %             115
 6  COc1c(O)c2c3c(c1OC)-c1ccccc1CC3N(S(=O)(=O)c1ccc(C)cc1)CC2 (configuration not stated)             growth             %            48.9
 7  COc1ccc(C2SC(C)C(=O)N2CCc2cccs2)cc1OC (configuration not stated)             growth             %             102
 8               O=c1onc(-c2ccccc2)c2ccccc12             growth             %             112
 9  CC1SC(c2ccc(Cl)cc2)N(CCc2cccs2)C1=O (configuration not stated)             growth             %             5.5
10  COc1ccc2c(c1)c(=O)oc1c(C)c(OCC(C)=O)ccc12             growth             %             110
11  COc1nc2c(cc1S(=O)(=O)c1ccccc1)CCc1c-2cnn1-c1ccccc1             growth             %            87.2
12  COc1ccccc1-n1c(SCc2cc(OC)c(OC)c(OC)c2)nc2ccc(Cl)cc2c1=O             growth             %            59.5
13             CN1CCc2c(c3ccccc3c3ccccc23)C1             growth             %              63
14             O=[N+]([O-])c1ccc(O)c2ncccc12             growth             %            75.2
15                   CCCCNNC(=O)c1ccc(Br)cc1             growth             %              85
16  COC(=O)c1cc(-c2ccc(C)cc2)n(C(=O)CSc2nc3sc(C(N)=O)c(C)c3c(=O)n2Cc2ccccc2)n1             growth             %            96.8
17  COc1nc2c(cc1S(=O)(=O)c1ccccc1)CCc1c-2cnn1-c1cccc(Cl)c1             growth             %            83.2
18      CC(=O)c1cc(C)c(OC(=O)c2ccccc2)c(C)c1             growth             %             103
19  O=C1/C(=C/c2ccc(F)cc2)CN(Cc2cn(CCNc3ccnc4cc(Cl)ccc34)nn2)C/C1=C\c1ccc(F)cc1             growth             %           -27.1
20  COc1cc(/C=C2\C(=O)N(c3c(Cl)cccc3Cl)c3ccccc32)cc(OC)c1O             growth             %            53.7
21   COc1cc(C(=O)N(C(C)C)C2CCCCC2)cc(OC)c1OC             growth             %            91.3
